test_target: human V-1 receptor (V1a) (Homo sapiens, UniProt P37288)
Construct: expressed in transfected cells; host or cells: HEK-293 (membranes)
Sequence (P37288 whole entry): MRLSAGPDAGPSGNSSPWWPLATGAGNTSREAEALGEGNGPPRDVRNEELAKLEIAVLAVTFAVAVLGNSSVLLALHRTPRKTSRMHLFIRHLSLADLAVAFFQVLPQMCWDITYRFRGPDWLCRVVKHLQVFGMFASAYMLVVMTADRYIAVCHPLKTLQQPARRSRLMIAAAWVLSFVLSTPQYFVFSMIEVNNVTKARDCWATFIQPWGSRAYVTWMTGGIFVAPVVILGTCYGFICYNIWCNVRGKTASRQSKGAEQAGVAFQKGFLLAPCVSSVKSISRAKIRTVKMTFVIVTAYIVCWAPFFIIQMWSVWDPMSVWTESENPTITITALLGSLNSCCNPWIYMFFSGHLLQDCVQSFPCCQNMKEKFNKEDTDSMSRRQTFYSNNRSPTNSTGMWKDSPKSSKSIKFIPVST
protocol_notes: In vitro recombinant vasopressin receptor binding assay (3H-arginine vasopressin displacement), V1a
conditions_used: 0.2 μM test compound; cloned human receptor membranes from HEK-293 cells; read-out: Binding V1a (% inhib @ 0.2 μM)
Structures can show the parent of a compound that is named as a salt.
parameter: inhibition at 0.2 µM (%)

| molecule | inhibition at 0.2 µM, % |
| --- | --- |
| CS(=O)(=O)OC[C@@H]1CN(C(=O)c2ccc(NC(=O)c3ccccc3-c3ccccc3)cc2Cl)c2ccccc2CN1S(C)(=O)=O | 0 |

(A) CN1Cc2ccccc2N(C(=O)c2ccc(NC(=O)c3ccccc3-c3ccccc3)cc2Cl)C[C@H]1COC1CCCC1 [Cpd 4, trifluoroacetate]
(B) CC(=O)OC[C@@H]1CN(C(=O)c2ccc(NC(=O)c3ccccc3-c3ccccc3)cc2Cl)c2ccccc2CN1C(C)=O
(C) CS(=O)(=O)N1Cc2ccccc2N(C(=O)c2ccc(NC(=O)c3ccccc3-c3ccccc3)cc2Cl)C[C@H]1CO
-- ask Please order the records by their reported inhibition at 0.2 µM, lowest number first. As an answer, provide the labels arranged in the order called for.
-- reply A, B, C

Value source: patent US7763605B2
